Experiment Notes: small molecules captured by biotinylated probe aFSTL3 – biochemical, small-molecule microarray, fluorescence 635/667, stem cell growth factor project, primary screen (AID 1064);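 further: measures binding of the biotinylated anti-FSTL3 antibody to printed compounds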
Run Conditions: higher = more signal
Note to self: values exactly at -0.1 are yes (1). So composite z-score at or above -0.1 is yes (1), below is no (0).

Study these solved cases before continuing.
[
  {
    "Structure Notation": "Cc1c(NC(=O)/C(C#N)=C/c2cccc([N+](=O)[O-])c2)c(=O)n(-c2ccccc2)n1C",
    "Class": "no (0)"
  },
  {
    "Structure Notation": "CC(C)[Si](C#C[Si](C(C)C)(C(C)C)C(C)C)(O[C@H](C)c1cn(Cc2ccccc2)nn1)C(C)C",
    "Class": "no (0)"
  },
  {
    "Structure Notation": "[N-]=[N+]=Nc1ccccc1C[C@]1(C(=O)N2CCCCC2)COC(c2ccc(OCCCO)cc2)=N1",
    "Class": "no (0)"
  },
  {
    "Structure Notation": "COCCOC(=O)N1C(=O)[C@@]2(c3ccccc31)[C@H](C(=O)N1CCCCCCC1)[C@H]1C(=O)O[C@H](c3ccccc3)[C@H](c3ccccc3)N1[C@@H]2c1ccc(OCCO)cc1",
    "Class": "yes (1)"
  }
]

Read the next record carefully.
Request: Exam item: decide whether the reported composite z-score for O=C1[C@@]23C=C(Br)[C@H](C[C@@H]2COC3)[C@]12CO2 is at least -0.1.
Response: no (0)

----------
Experiment Notes: binders of probe aHhip on microarray, primary screen, stem cell growth factor project, biochemical, small-molecule microarray, fluorescence 635/667 (AID 1087);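 further: score merges spot fluorescence at 667nm with spot signal to noise ratio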
Run Conditions: higher = more signal
Experimental Readout: composite z-score
One number for each entry.

Reference set (3 entries):
[
  {
    "Structure Notation": "C=CC[C@]1(C(N)=O)COC(c2ccc(OCCCO)cc2)=N1",
    "composite z-score": -0.0645
  },
  {
    "Structure Notation": "COCCOC(=O)N1C(=O)[C@@]2(c3cc(C#CCCO)ccc31)[C@H](c1ccc(OCCO)cc1)N1[C@H](c3ccccc3)[C@H](c3ccccc3)OC(=O)[C@H]1[C@@H]2C(N)=O",
    "composite z-score": -0.239
  },
  {
    "Structure Notation": "O=C1N(CCS(=O)(=O)c2ccccc2)c2ccccc2[C@@H]2OC(c3ccc(OCCCO)cc3)=N[C@]12Cc1ccccc1",
    "composite z-score": -0.156
  }
]

Dear colleague, could you please provide composite z-score for the molecules listed below?
1. C=C(/C(=C/C[C@H](OC(=O)c1ccncc1)c1ccc(OCCO)cc1)c1cc(C(=O)OC)ccc1OC)C(C)C
2. CC(=O)Nc1cc(Br)ccc1C(=O)NCc1ccccc1
3. [N-]=[N+]=Nc1ccccc1C[C@]1(C(=O)NCc2ccccc2)N=C(c2ccc(OCCCO)cc2)O[C@H]1c1ccccc1N=[N+]=[N-]
4. CCOC(=O)C[C@H]1[C@H](OC(=O)c2ccc(C(=O)c3ccccc3)cc2)[C@@H](NC(=O)c2ccccc2)c2cc(OCCCO)ccc2N1C(=O)c1ccccc1
5. [N-]=[N+]=Nc1ccccc1C[C@@]1(C(=O)N2CCCCC2)N=C(c2ccc(OCCCO)cc2)O[C@@H]1c1ccccc1
6. CO[C@H]1O[C@H](CO)[C@@H](OC(=O)Nc2ccc(Br)cc2)[C@@H]2OC(=O)[C@H](Cc3cccc(Br)c3)C/C=C/C[C@@H](Cc3cccc(Br)c3)C(=O)O[C@@H]12

Response:
-0.0994
-0.226
-0.0672
0.0053
0.0873
0.315
